experiment: in vitro; conditions: human, liver microsomes
Description: Metabolic stability in human liver microsomes assessed as clearance
PARAMETER: microsomal CLint (µL/min/mg)

1. O=C(c1ccc(F)c(Cl)c1)N1CCC(CNCCCc2c[nH]c3ccc(F)cc23)CC1
2. N#Cc1ccc2[nH]cc(CCCNCC3CCN(C(=O)c4ccc(F)c(Cl)c4)CC3)c2c1
Problem: Thinking about recorded microsomal CLint values, which is higher, 1 or 2 ? Your answer should be the label attached to the chosen record.
Result: 2
(2: 113 µL/min/mg, 1: 51.8 µL/min/mg)

1. Cc1ccc(C(=O)N2CCC(CNCCCc3c[nH]c4ccc(F)cc34)CC2)cc1
2. NC(=O)c1cccc(C(=O)N2CCC(CNCCCc3c[nH]c4ccc(F)cc34)CC2)c1
Problem: Dear colleague, could you let me know whether 1 or 2 has the lower recorded microsomal CLint? Thanks. Your answer should be the label attached to the chosen record.
Result: 2
(2: 9 µL/min/mg, 1: 310 µL/min/mg)

I. N#Cc1ccc2[nH]cc(CCCCN3CCN(c4ccc5oc(C(N)=O)cc5c4)CC3)c2c1
II. NC(=O)c1ccccc1C(=O)N1CCC(CNCCCc2c[nH]c3ccc(F)cc23)CC1
Problem: Dear colleague, could you let me know whether I or II has the lower recorded microsomal CLint? Thanks. Your answer should be the label attached to the chosen record.
Result: I
(I: 51.6 µL/min/mg, II: 138 µL/min/mg)

a. O=C(c1ccc(F)cc1)N1CCC(CNCCCc2c[nH]c3ccc(F)cc23)CC1
b. Cc1cc(C(=O)N2CCC(CNCCCc3c[nH]c4ccc(F)cc34)CC2)ccc1F
Problem: Thinking about recorded microsomal CLint values, which is higher, a or b ? Your answer should be the label attached to the chosen record.
Result: b
(b: 559 µL/min/mg, a: 84.3 µL/min/mg)
